Molecular target: T1, Factor VIIIa (recombinant FVIII, Kogenate FS, activated with alpha-thrombin) (UniProt P00451 20-2351)
T1 construct: also called FVIIIa
T1 sequence (looked up): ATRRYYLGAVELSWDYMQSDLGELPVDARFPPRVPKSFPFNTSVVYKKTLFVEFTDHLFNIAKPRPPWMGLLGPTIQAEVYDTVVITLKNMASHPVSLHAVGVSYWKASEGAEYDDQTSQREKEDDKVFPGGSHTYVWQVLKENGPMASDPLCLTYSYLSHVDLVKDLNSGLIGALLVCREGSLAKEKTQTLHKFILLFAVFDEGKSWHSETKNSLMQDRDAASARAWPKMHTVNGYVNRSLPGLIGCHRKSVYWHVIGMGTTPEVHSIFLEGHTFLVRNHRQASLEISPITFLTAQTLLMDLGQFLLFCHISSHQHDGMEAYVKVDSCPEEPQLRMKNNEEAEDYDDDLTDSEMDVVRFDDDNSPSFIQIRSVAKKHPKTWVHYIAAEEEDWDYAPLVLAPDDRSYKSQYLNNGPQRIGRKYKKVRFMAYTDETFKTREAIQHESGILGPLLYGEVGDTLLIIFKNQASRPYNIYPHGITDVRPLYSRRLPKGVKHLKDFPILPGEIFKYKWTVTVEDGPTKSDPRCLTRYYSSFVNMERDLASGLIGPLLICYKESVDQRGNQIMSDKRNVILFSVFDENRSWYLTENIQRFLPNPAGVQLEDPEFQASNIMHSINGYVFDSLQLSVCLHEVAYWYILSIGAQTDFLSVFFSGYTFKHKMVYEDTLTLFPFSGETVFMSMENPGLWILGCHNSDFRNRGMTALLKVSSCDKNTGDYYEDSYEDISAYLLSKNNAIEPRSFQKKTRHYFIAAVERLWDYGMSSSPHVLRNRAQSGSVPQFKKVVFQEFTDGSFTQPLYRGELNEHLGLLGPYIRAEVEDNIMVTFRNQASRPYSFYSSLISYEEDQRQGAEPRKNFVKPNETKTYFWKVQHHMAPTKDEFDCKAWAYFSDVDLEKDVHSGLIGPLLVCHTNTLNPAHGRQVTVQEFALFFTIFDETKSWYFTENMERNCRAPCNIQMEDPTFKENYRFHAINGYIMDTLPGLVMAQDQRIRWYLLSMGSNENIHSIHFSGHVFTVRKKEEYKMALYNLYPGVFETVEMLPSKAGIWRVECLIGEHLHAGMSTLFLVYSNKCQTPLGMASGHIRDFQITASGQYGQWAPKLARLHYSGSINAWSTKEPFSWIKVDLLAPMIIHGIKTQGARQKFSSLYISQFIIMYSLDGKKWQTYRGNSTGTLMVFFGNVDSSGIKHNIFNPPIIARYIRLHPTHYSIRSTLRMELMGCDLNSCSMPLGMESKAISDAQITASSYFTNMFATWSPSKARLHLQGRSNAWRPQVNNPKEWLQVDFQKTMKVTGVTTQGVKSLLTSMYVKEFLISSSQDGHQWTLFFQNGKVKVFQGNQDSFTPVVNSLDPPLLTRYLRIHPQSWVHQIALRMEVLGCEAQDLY
Experiment: ratio of KD-app of wild-type FIXa (Catalyst Biosciences WT, SEQ ID NO:3) to that of the variant, same Xase assay
readout.name: KD-WT/KD-mut

Query block: # lookup: KD-WT/KD-mut of FIXa-K247N/N249S/R338E/T343R/E410N (enzyme, also called K82N/N84S/R170E/T175R/E240N (chymotrypsin numbering)) chain 1: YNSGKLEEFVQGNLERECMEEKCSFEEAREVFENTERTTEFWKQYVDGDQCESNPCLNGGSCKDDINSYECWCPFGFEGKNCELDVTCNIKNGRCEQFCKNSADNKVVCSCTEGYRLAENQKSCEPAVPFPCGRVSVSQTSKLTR chain 2: VVGGEDAKPGQFPWQVVLNGKVDAFCGGSIVNEKWIVTAAHCVETGVKITVVAGEHNIEETEHTEQNRSVIRIIPHHNYNAAINKYNHDIALLELDEPLVLNSYVTPICIADKEYTNIFLKFGSGYVSGWGRVFHKGRSALVLQYLRVPLVDRATCLESTKFRIYNNMFCAGFHEGGRDSCQGDSGGPHVTEVEGTSFLTGIISWGEECAMKGKYGIYTKVSRYVNWIKNKTKLT
Result block: 6.8
